Subject of test: ROCK2 (Homo sapiens (Human), UniProt O75116)
Sequence (O75116 whole entry, species assumed): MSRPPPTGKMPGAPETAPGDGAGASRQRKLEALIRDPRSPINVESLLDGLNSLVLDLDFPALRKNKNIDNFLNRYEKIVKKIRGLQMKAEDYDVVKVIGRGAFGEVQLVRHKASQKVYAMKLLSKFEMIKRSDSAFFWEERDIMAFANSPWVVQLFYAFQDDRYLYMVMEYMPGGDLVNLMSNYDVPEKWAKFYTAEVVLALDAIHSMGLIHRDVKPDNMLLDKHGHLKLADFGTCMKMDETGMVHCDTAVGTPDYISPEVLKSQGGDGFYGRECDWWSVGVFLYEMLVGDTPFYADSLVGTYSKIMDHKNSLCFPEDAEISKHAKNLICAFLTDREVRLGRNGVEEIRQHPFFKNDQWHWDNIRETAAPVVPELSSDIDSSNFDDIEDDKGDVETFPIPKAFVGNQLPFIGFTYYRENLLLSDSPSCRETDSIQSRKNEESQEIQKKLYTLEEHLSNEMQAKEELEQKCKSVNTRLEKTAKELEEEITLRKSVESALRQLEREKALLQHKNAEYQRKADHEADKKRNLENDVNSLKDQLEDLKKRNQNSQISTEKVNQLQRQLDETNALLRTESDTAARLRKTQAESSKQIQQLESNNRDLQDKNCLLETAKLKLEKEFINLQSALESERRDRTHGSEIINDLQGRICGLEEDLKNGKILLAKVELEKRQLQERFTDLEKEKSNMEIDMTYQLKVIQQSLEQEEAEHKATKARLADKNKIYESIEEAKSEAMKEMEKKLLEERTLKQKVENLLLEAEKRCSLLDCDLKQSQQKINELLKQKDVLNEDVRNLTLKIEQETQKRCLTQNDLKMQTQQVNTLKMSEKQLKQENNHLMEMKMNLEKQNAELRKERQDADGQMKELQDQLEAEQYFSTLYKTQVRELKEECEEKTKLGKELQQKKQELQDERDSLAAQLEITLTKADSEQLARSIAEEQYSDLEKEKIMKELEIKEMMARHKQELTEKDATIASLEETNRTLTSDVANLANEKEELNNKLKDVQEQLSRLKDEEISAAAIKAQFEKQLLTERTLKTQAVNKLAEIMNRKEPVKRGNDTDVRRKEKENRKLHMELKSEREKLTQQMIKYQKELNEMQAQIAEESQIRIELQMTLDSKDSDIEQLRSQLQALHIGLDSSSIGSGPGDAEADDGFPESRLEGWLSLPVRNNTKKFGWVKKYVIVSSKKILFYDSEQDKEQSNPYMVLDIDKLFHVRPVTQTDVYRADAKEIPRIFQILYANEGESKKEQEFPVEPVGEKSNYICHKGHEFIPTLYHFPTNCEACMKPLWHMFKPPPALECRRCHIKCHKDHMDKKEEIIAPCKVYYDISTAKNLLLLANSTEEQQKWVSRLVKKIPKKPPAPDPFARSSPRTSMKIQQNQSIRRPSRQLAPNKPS
Protocol details: Rho-kinase inhibition ELISA (ROCK active-II, MYPT1 substrate)
Type: biochemical
Condition summary: Table 2; classes given as pIC50; ATP 250 μM; read-out: ROCK IC50
pIC50: −log10 of the molar value.
Value type: pIC50

Solved cases (8 shown):
Can you look up the measured pIC50 of CC(c1ccc(F)cc1)N(CCN)C(=O)Nc1ccc2cnccc2c1 (stereo not drawn) [compound 22] for me?
6.00 to 7.00

Recorded pIC50 for NCCN(Cc1cccc(F)c1)C(=S)Nc1ccc2cnccc2c1 [compound 28] , please?
6.00 to 7.00

Using the record for N#C/N=C(/Nc1ccc2cnccc2c1)N(CCN)Cc1ccc(F)cc1 [compound 30] , report its pIC50.
7.00 to 8.00

Need pIC50 of NCCN(Cc1cccc(Cl)c1)C(=S)Nc1ccc2cnccc2c1 [compound 38] , thanks.
7.00 to 8.00

Value lookup for pIC50; key = N#C/N=C(/Nc1ccc2cnccc2c1)N(CCN)Cc1cccc(F)c1 [compound 29]
7.00 to 8.00

Given NCCN(Cc1ccccc1)C(=S)Nc1ccc2cnccc2c1 [compound 27] , state its recorded pIC50.
6.00 to 7.00

Fill blank: measured pIC50 of the molecule CN(C)CCN(Cc1ccccc1)C(=O)Nc1cccc2cnccc12 [compound 6] is ____.
6.00 to 7.00

Reported pIC50, molecule CN(C)CCN(Cc1ccc(F)cc1)C(=S)Nc1cccc2cnccc12 [compound 11] : ____
6.00 to 7.00

Pending molecule:
Report pIC50 for N#C/N=C(\Nc1ccc2cnccc2c1)N(CCN)Cc1ccc(Br)cc1 [compound 34] please.
7.00 to 8.00
